Reference for the values: patent US5202310A

Test system: L2 cells
Conditions: murine lung cell line L2

- compound: "CC[C@@H]1NC(=O)[C@H]([C@H](O)[C@H](C)C/C=C/CO)N(C)C(=O)[C@H](C(C)C)N(C)C(=O)[C@H](CC(C)C)N(C)C(=O)[C@H](CC(C)C)N(C)C(=O)[C@@H](C)NC(=O)[C@H](C)NC(=O)[C@H](CC(C)C)N(C)C(=O)[C@H](C(C)C)NC(=O)[C@H](CC(C)C)N(C)C(=O)CN(C)C1=O [OL-17, 1-hydroxy cyclosporine A]"
  Inhibition of protein synthesis: "no inhibitory effects"
- compound: "C/C=C/C[C@@H](C)[C@@H](O)[C@H]1C(=O)N[C@@H](CC)C(=O)N(C)CC(=O)N(C)[C@@H](CC(C)C)C(=O)N[C@@H](C(C)C)C(=O)N(C)[C@@H](CC(C)C)C(=O)N[C@@H](C)C(=O)N[C@H](C)C(=O)N(C)[C@@H](CC(C)(C)O)C(=O)N[C@@H](CC(C)C)C(=O)N(C)[C@@H](C(C)C)C(=O)N1C [CM Peak H]"
  Inhibition of protein synthesis: "no inhibitory effects"
- compound: "CC[C@@H]1NC(=O)[C@H]([C@H](O)[C@H](C)C/C=C/CO)N(C)C(=O)[C@H](C(C)C)N(C)C(=O)[C@H](CC(C)C)N(C)C(=O)[C@H](CC(C)(C)O)N(C)C(=O)[C@@H](C)NC(=O)[C@H](C)NC(=O)[C@H](CC(C)C)N(C)C(=O)[C@H](C(C)C)NC(=O)[C@H](CC(C)C)N(C)C(=O)CN(C)C1=O [OL-8, 1,9 dihydroxy cyclosporine A]"
  Inhibition of protein synthesis: "no inhibitory effects"

---

System: L2 cells
Details: murine lung cell line L2
measuredMetric: Inhibition of DNA synthesis

- molecule: "C/C=C/C[C@@H](C)[C@@H](O)[C@H]1C(=O)N[C@@H](CC)C(=O)N(C)CC(=O)N(C)[C@@H](CC(C)C)C(=O)N[C@@H](C(C)C)C(=O)N(C)[C@@H](CC(C)C)C(=O)N[C@@H](C)C(=O)N[C@H](C)C(=O)N(C)[C@@H](CC(C)(C)O)C(=O)N(C)[C@@H](CC(C)C)C(=O)N(C)[C@@H](C(C)C)C(=O)N1C [OL-1, 9-hydroxy cyclosporine A]"
  targetEntity: "L2 cells"
  observedResult: "no inhibitory effects"
- molecule: "CC[C@@H]1NC(=O)[C@H]([C@H](O)[C@H](C)C/C=C/CO)N(C)C(=O)[C@H](C(C)C)N(C)C(=O)[C@H](CC(C)C)N(C)C(=O)[C@H](CC(C)C)N(C)C(=O)[C@@H](C)NC(=O)[C@H](C)NC(=O)[C@H](CC(C)C)N(C)C(=O)[C@H](C(C)C)NC(=O)[C@H](CC(C)C)N(C)C(=O)CN(C)C1=O [OL-17, 1-hydroxy cyclosporine A]"
  targetEntity: "L2 cells"
  observedResult: "no inhibitory effects"
- molecule: "CC[C@@H]1NC(=O)[C@H]([C@H](O)[C@H](C)C/C=C/CO)N(C)C(=O)[C@H](C(C)C)N(C)C(=O)[C@H](CC(C)C)N(C)C(=O)[C@H](CC(C)(C)O)N(C)C(=O)[C@@H](C)NC(=O)[C@H](C)NC(=O)[C@H](CC(C)C)N(C)C(=O)[C@H](C(C)C)NC(=O)[C@H](CC(C)C)N(C)C(=O)CN(C)C1=O [OL-8, 1,9 dihydroxy cyclosporine A]"
  targetEntity: "L2 cells"
  observedResult: "no inhibitory effects"
- molecule: "C/C=C/C[C@@H](C)[C@@H](O)[C@H]1C(=O)N[C@@H](CC)C(=O)N(C)CC(=O)N(C)[C@@H](CC(C)C)C(=O)N[C@@H](C(C)C)C(=O)N(C)[C@@H](CC(C)C)C(=O)N[C@@H](C)C(=O)N[C@H](C)C(=O)N(C)[C@@H](CC(C)(C)O)C(=O)N[C@@H](CC(C)C)C(=O)N(C)[C@@H](C(C)C)C(=O)N1C [CM Peak H]"
  targetEntity: "L2 cells"
  observedResult: "no inhibitory effects"
